The reported measurements were obtained from ChEMBL document CHEMBL4261541.

assay.system: Indoleamine 2,3-dioxygenase 1 (Homo sapiens, UniProt P14902)
Sequence (P14902 whole entry, looked up): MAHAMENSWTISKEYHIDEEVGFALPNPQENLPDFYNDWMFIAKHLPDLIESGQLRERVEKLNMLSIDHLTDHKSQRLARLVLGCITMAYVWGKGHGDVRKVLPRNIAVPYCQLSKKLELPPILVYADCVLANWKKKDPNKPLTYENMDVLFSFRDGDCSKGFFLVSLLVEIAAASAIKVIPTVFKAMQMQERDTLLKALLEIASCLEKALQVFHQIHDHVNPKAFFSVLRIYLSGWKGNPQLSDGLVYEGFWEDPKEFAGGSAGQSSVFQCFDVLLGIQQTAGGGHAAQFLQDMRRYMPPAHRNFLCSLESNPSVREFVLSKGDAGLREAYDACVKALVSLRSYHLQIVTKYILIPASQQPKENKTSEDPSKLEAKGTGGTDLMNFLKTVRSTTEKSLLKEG
method: Binding affinity to human ferric-IDO1 assessed as blue shift in soret peak at 50 uM by UV-Visible spectrophotometric method
The source made the active and inactive calls. The rule behind the calls is not given here.
outcome.measure: Activity

Problem: Would you mind telling me what Activity value was observed for CC(=O)CC(=O)/C=C1\C(=O)Nc2ccc(Cl)cc21 ?
Solution: Active

Problem: Would you mind telling me what Activity value was observed for O=C(N[C@@H](CC1C(=O)Nc2ccccc21)C(=O)O)OCc1ccccc1 (some centres undefined) ?
Solution: Active

Problem: Would you mind telling me what Activity value was observed for CC(=O)CC(=O)CC1(O)C(=O)Nc2ccccc21 (centres undefined) ?
Solution: 9 nm

Problem: Would you mind telling me what Activity value was observed for CC(=O)N[C@@H](CC1C(=O)Nc2ccccc21)C(=O)O (mixture of isomers) ?
Solution: Active
